experiment: Half-life determination in mouse plasma (LC-MS); format: in vitro ADME; conditions: 37° C.
Each record here notes measured half-life.
# output: bare number, implied unit h

Worked examples follow.
COMPOUND_SMILES: CC[C@@H]1NC(=O)[C@H](CCCCN)NC(=O)[C@@H](Cc2c[nH]c3ccccc23)NC(=O)[C@H](Cc2ccc(O)cc2)NC(=O)[C@@H](NC(=O)[C@@H](Cc2ccccc2)NC(=O)CN2CCN(CCNC(=O)COCCOCCNC(=O)COCCOCCNC(=O)COCCOCCNC(=O)COCCOCCNC(=O)CCCC(=O)O[C@]3(CC)C(=O)OCc4c3cc3n(c4=O)Cc4cc5ccccc5nc4-3)CC2)CSSC[C@@H](C(=O)N[C@H](C(N)=O)[C@@H](C)O)NC1=O
half-life, h: 4.2

COMPOUND_SMILES: CC[C@@H]1NC(=O)[C@H](CCCCN)NC(=O)[C@@H](Cc2c[nH]c3ccccc23)NC(=O)[C@H](Cc2ccc(O)cc2)NC(=O)[C@@H](NC(=O)[C@@H](Cc2ccccc2)NC(=O)CN2CCN(CCNC(=O)COCCOCCOCCNC(=O)COCCOCCOCCNC(=O)COCCOCCOCCNC(=O)CCC(=O)N[C@H](CC(=O)O)C(=O)O[C@]3(CC)C(=O)OCc4c3cc3n(c4=O)Cc4cc5ccccc5nc4-3)CC2)CSSC[C@@H](C(=O)N[C@H](C(N)=O)[C@@H](C)O)NC1=O
half-life, h: 44.1

# context switch: different compound, same half-life
Recorded half-life for `CC[C@@H]1NC(=O)[C@H](CCCCN)NC(=O)[C@@H](Cc2c[nH]c3ccccc23)NC(=O)[C@H](Cc2ccc(O)cc2)NC(=O)[C@@H](NC(=O)[C@@H](Cc2ccccc2)NC(=O)CN2CCN(CCNC(=O)COCCOCCNC(=O)COCCOCCNC(=O)COCCOCCNC(=O)COCCOCCNC(=O)CCC(=O)N[C@H](C(=O)O[C@]3(CC)C(=O)OCc4c3cc3n(c4=O)Cc4cc5ccccc5nc4-3)C(C)C)CC2)CSSC[C@@H](C(=O)N[C@H](C(N)=O)[C@@H](C)O)NC1=O` , please? 5

Cited source for all entries: patent US8236762B2
